// provenance: PubChem BioAssay

test: budding yeast growth modifiers under rapamycin – strain BY4716, OD600, 96 h, primary screen (AID 1091); also: test concentration not given here; conditions: S. cerevisiae BY4716 + rapamycin, higher = more signal, called active from +8 up or from −8 down
Calls of active or inactive are those of the source.
observable: z-score

{"compound": "COC(=O)[C@@]1(Cc2ccccc2)[C@H]2c3cc(C(=O)N(C)C)n(Cc4ccccc4)c3C[C@H]2CN1C(=O)c1ccccc1", "valueMeasured": "1.51 (inactive)"}
{"compound": "CN(C)CCCC[C@@H]1NC(=O)[C@@H]2C[C@H](C(=O)NCc3ccc(F)cc3)[C@H](c3cccc(OCCO)c3)N2C1=O", "valueMeasured": "-0.663 (inactive)"}
{"compound": "CO[C@H]1O[C@H](CO)[C@@H](OC(=O)Nc2ccc3c(c2)OCO3)[C@H](OC(=O)Nc2ccc3c(c2)OCO3)[C@H]1OC(=O)Nc1ccc2c(c1)OCO2", "valueMeasured": "3.19 (inactive)"}
{"compound": "[N-]=[N+]=NCc1ccccc1[C@@H]1OC(c2ccc(OCCCO)cc2)=N[C@]1(Cc1ccccc1N=[N+]=[N-])C(N)=O", "valueMeasured": "-0.91 (inactive)"}
{"compound": "CCOC(=O)C[C@H]1[C@H](OC(=O)c2ccccc2-c2ccccc2)[C@@H](NC(=O)c2ccc(-c3ccccc3)cc2)c2cc(OCCCO)ccc2N1C(=O)c1ccccc1", "valueMeasured": "1.7 (inactive)"}
{"compound": "CCN(CC)c1ccc(N2CC=CC34O[C@@H]5C=CCOC(=O)[C@@H]5[C@H]3C(=O)N(CCCCCO)[C@@H]4C2=O)cc1 (stereo partly drawn)", "valueMeasured": "-0.522 (inactive)"}
{"compound": "C=CCC(OC(C)=O)[C@@H]1[C@@H](N(Cc2cc3ccccc3o2)C(=O)c2cccc3ccccc23)c2cc(OCCCO)ccc2N1C(=O)Cc1ccc(OC)cc1 (stereo partly drawn)", "valueMeasured": "0.351 (inactive)"}
{"compound": "CC(C)OC(=O)C1=CCC(c2cccc(Cl)c2)O1 (stereo not drawn)", "valueMeasured": "-1.11 (inactive)"}

Find the recorded z-score belonging to COC(=O)[C@@]1(Cc2ccc(F)cc2)[C@H]2c3cc(C(=O)N4CCCC4)n(CCc4ccc(OC)c(Br)c4)c3C[C@H]2CN1C(=O)c1ccccc1 and report it.
2.31 (inactive)

# lookup: z-score of COc1ccc([Si](C)(C)[C@@H]2[C@@H](CCO)O[C@]3(C(=O)N(Cc4ccccc4)c4ccc(N(C=O)c5ccccc5)cc43)[C@H]2C)cc1
7.37 (inactive)

# input compound: CC1CC/C=C\[C@H]2OC34C=CCN(c5ccc6ccccc6c5)C(=O)[C@H]3N(CCCCCO)C(=O)[C@@H]4C2C(=O)O1 (stereo partly drawn) ; wanted: its z-score
-0.32 (inactive)

Value lookup for z-score; key = CCCNC(=O)[C@@]1(C)c2ccccc2C(=O)N(C(C)C)[C@H]1c1ccc(CO)cc1
-0.397 (inactive)

I'd like to know its z-score. The compound in question is CC(C)C[C@@H]1NC(=O)[C@@H]2C[C@H](C(=O)NCCCCN(C)C)[C@H](c3ccc(O)cc3)N2C1=O
-0.367 (inactive)

State the recorded z-score for this entry: [N-]=[N+]=NCc1ccccc1C[C@]1(C(=O)NCC(O)CO)COC(c2ccc(OCCCO)cc2)=N1 (stereo partly drawn)
0.113 (inactive)

Please look up its z-score: C=C(/C(=C/C[C@@H](OC(=O)c1ccncc1)c1ccc(CO)o1)c1cc(C(=O)OC)ccc1OC)C(C)C
-0.414 (inactive)

Could you tell me which z-score is on file for O=C1O[C@@H](c2ccccc2)[C@@H](c2ccccc2)N2[C@@H](c3ccc(O)cc3)[C@]3(C(=O)Nc4ccccc43)[C@@H](C(=O)NC[C@H](O)c3ccccc3)[C@H]12 ?
1.49 (inactive)

Reported z-score for O=C1OCC=C[C@H]2OC34C=CCN(CCN5CCOCC5)C(=O)[C@H]3N(CCCCCCO)C(=O)[C@@H]4[C@@H]12 (stereo partly drawn) : what is it?
-0.918 (inactive)

z-score lookup needed for COCCOC(=O)N1C(=O)[C@@]2(c3cc(C#CCCO)ccc31)[C@H](c1ccc(O)cc1)N1[C@H](c3ccccc3)[C@H](c3ccccc3)OC(=O)[C@H]1[C@@H]2C(=O)N1CCCCCCC1 , thanks.
0.563 (inactive)
